test_protocol: Intrinsic aqueous solubility in 23% Captisol
Type: physicochemical
measured_property: solubility

Problem: Would you mind telling me what solubility value was observed for "O=C(Nc1ccc(O)c(C(=O)O)c1)c1ccc(NC(=O)c2ccco2)cc1" ?
Result: 650 µg/mL

###

test_target: NAD-dependent protein deacylase sirtuin-6 (Homo sapiens)
Sequence (Q8N6T7 whole entry): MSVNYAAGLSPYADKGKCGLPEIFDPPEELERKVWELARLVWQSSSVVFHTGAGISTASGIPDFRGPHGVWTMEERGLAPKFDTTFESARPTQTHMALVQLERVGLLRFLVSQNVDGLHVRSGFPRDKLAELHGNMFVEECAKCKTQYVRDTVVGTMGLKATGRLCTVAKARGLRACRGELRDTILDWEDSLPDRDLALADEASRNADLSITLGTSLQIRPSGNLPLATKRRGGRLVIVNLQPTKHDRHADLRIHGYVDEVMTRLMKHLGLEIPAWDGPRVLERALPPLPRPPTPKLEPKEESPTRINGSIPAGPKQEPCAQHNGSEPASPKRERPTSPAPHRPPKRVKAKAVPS
test_protocol: Inhibition of SIRT6 in human BxPC3 cells assessed as increase in 2-NBDG uptake at 100 uM incubated for 18 hrs by glucose uptake assay
Type: cell-based
Exercise: for every item that follows, state its recorded fold change (FC).
One number for each entry.

The cases that follow already have their fold change (FC) on record.
Problem: Would you mind telling me what fold change (FC) value was observed for "O=C(Nc1ccc(O)c(C(=O)O)c1)c1cccc(NC(=O)c2ccco2)c1" ?
Result: 1.3

Problem: Would you mind telling me what fold change (FC) value was observed for "O=C(Nc1ccc(C(=O)O)c(O)c1)c1ccc(NC(=O)c2ccco2)cc1" ?
Result: 1.7

Problem: Would you mind telling me what fold change (FC) value was observed for "O=C(Nc1ccc(O)c(C(=O)O)c1)c1ccc(NC(=O)c2ccco2)cc1" ?
Result: 1.4

Shifting focus to the compound that follows.
Problem: Would you mind telling me what fold change (FC) value was observed for "O=C(Nc1ccc(O)cc1C(=O)O)c1ccc(N2C(=O)c3ccccc3C2=O)cc1" ?
Result: 1.1

###

test_protocol: Intrinsic aqueous solubility in surfactant in 9% Tween 80
Type: physicochemical
study_conditions: 9% Tween 80 surfactant solution
measured_property: solubility (µg/mL)
One number for each entry, in µg/mL.

Problem: Would you mind telling me what solubility value was observed for "O=C(Nc1ccc(O)c(C(=O)O)c1)c1ccc(NC(=O)c2ccco2)cc1" ?
Result: 1700

###

test_protocol: Cmax in ICR mouse at 5 mg/kg, ip by LC-MS/MS method
Format: ADME, organism-based
Set-up: dose 5 mg/kg, route intraperitoneal
study_conditions: in vivo
measured_property: Cmax
Write the numeric value and follow it with the unit.

Problem: Would you mind telling me what Cmax value was observed for "O=C(Nc1ccc(O)c(C(=O)O)c1)c1ccc(NC(=O)c2ccco2)cc1" ?
Result: 3890 ng/mL

###

test_target: UniProtKB Q8IXJ6
Sequence (Q8IXJ6 whole entry): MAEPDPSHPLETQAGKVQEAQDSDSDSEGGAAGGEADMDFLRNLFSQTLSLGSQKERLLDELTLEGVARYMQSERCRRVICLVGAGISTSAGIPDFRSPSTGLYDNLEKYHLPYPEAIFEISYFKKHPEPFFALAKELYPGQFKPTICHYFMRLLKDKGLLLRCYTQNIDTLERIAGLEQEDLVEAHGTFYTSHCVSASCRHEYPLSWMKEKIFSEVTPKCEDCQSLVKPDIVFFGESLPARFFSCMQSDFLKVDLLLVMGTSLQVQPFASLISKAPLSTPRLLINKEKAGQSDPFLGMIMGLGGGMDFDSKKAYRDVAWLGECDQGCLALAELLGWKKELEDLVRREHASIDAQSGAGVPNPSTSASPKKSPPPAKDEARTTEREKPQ
test_protocol: Inhibition of human recombinant SIRT2 assessed as reduction in NAD+-dependent deacetylase activity using Arg-His-Lys-Lys(epsilon-acetyl)-AMC substrate and NAD+ by fluorescence based assay
measured_property: pIC50
Numbers only, as −log10 of the molar value.

The cases that follow already have their pIC50 on record.
Problem: Would you mind telling me what pIC50 value was observed for "O=C(Nc1ccc(O)cc1C(=O)O)c1ccc(N2C(=O)c3ccccc3C2=O)cc1" ?
Result: 3.48

Problem: Would you mind telling me what pIC50 value was observed for "O=C(Nc1ccc(O)c(C(=O)O)c1)c1ccc(NC(=O)c2ccco2)cc1" ?
Result: 3.34

Shifting focus to the compound that follows.
Problem: Would you mind telling me what pIC50 value was observed for "O=C(Nc1ccc(C(=O)O)c(O)c1)c1ccc(NC(=O)c2ccco2)cc1" ?
Result: 3.32

###

test_protocol: Intrinsic aqueous solubility in 23% Kleptose HPB
Type: physicochemical
measured_property: solubility (mg/mL)
Answers are plain numbers, in mg/mL.

Problem: Would you mind telling me what solubility value was observed for "O=C(Nc1ccc(O)cc1C(=O)O)c1ccc(N2C(=O)c3ccccc3C2=O)cc1" ?
Result: 0.05

###

test_protocol: Fraction unbound in human plasma at 10 ug/ml by rapid equilibrium dialysis
Assay type: ADME, cell-free
measured_property: fraction unbound at 10 ug/ml
One number for each entry.

Problem: Would you mind telling me what fraction unbound at 10 ug/ml value was observed for "O=C(Nc1ccc(O)c(C(=O)O)c1)c1ccc(NC(=O)c2ccco2)cc1" ?
Result: 0.024

Reference for the values: ChEMBL document CHEMBL4177587
